Values from the RepoRT retention time repository

- Protocol details: HILIC, Waters ACQUITY UPLC BEH Amide, 100 × 2.1 mm, 1.7 µm; A: water + 0.125% formic acid + 10 mM ammonium formate; B: 5% water + 95% acetonitrile + 0.125% formic acid + 10 mM ammonium formate; gradient (min/%B) 0/100 2/100 7.7/70 9.5/40 10.25/30 12.75/100 17/100
- Condition: stereoisomer not certain
Measured attribute: LC retention time (min)
Form entry: value (min) — number only.

- CC(C)C(NC(=O)C(N)CCCN=C(N)N)C(=O)O (configuration not stated): 9.3
- O=C1CN=C(c2ccccn2)c2cc(Br)ccc2N1: 1.3
- NCCCC(=O)O: 7.86

Would you mind telling me what LC retention time value was observed for CNC(C(=O)O)C(C)C (configuration not stated) ? 6.99

Would you mind telling me what LC retention time value was observed for OCC1OCC(O)C(O)C1O (configuration not stated) [1,5-Anhydrosorbitol] ? 0.92

----------
// LC retention time lookup, one value per entry
- Protocol details: HILIC, Waters ACQUITY UPLC BEH Amide, 100 × 2.1 mm, 1.7 µm; A: water + 0.125% formic acid + 10 mM ammonium formate; B: 5% water + 95% acetonitrile + 0.125% formic acid + 10 mM ammonium formate; gradient (min/%B) 0/100 2/100 7.7/70 9.5/40 10.25/30 12.75/100 17/100
- Condition: stereoisomer not certain
Form entry: value (min) — number only.

- COC(=O)Nc1nc2ccc(C(=O)c3ccc(F)cc3)cc2[nH]1: 1.16

For the next question, use this compound.
Would you mind telling me what LC retention time value was observed for CCOC(=O)C(CCc1ccccc1)NC(C)C(=O)N1C(C(=O)O)CC2CCCC21 (configuration not stated) ? 1.4

----------
- Protocol details: HILIC, Waters ACQUITY UPLC BEH Amide, 100 × 2.1 mm, 1.7 µm; A: water + 0.125% formic acid + 10 mM ammonium formate; B: 5% water + 95% acetonitrile + 0.125% formic acid + 10 mM ammonium formate; gradient (min/%B) 0/100 2/100 7.7/70 9.5/40 10.25/30 12.75/100 17/100
- Condition: stereoisomer not certain
// LC retention time lookup, one value per entry

Solved cases (3 shown):
* O=C(OC1CC2CC3CC(C1)N2CC3=O)c1c[nH]c2ccccc12 (stereo unspecified) [Dolasetron] | 1.9 min
* CN(C)C(N)=NCCCC(N)C(=O)O (stereo unspecified) [ADMA] | 8.55 min
* CCCC(=O)OC(CC(=O)[O-])C[N+](C)(C)C [(R)-Butyrylcarnitine] | 5.77 min

Would you mind telling me what LC retention time value was observed for Cc1ccnc2c1NC(=O)c1cccnc1N2C1CC1 [Viramune] ? 1.16 min

Would you mind telling me what LC retention time value was observed for O=c1ccn(C2OC(CO)C(O)C2O)c(=S)[nH]1 (stereo unspecified) [2-Thiouridine] ? 2.48 min

Would you mind telling me what LC retention time value was observed for CN1C2CC(OC(=O)C(CO)c3ccccc3)CC1C1OC12 (stereo unspecified) [Scopolamine] ? 3.75 min

Would you mind telling me what LC retention time value was observed for NC(CCC(=O)O)C(=O)O (stereo unspecified) [Glutamic acid] ? 8.85 min

Would you mind telling me what LC retention time value was observed for c1ccc(Cn2ccnc2)cc1 [1-Benzylimidazole] ? 1.63 min

----------
- Protocol details: HILIC, Waters ACQUITY UPLC BEH Amide, 100 × 2.1 mm, 1.7 µm; A: water + 0.125% formic acid + 10 mM ammonium formate; B: 5% water + 95% acetonitrile + 0.125% formic acid + 10 mM ammonium formate; gradient (min/%B) 0/100 2/100 7.7/70 9.5/40 10.25/30 12.75/100 17/100
- Condition: stereoisomer not certain
// LC retention time lookup, one value per entry
Form entry: value (min) — number only.

- Cc1cn(C2CC(O)C(CO)O2)c(=O)[nH]c1=O (stereo unspecified): 2.57
- CC12CCC3c4ccc(O)cc4CCC3C1CC(OC1OC(C(=O)O)C(O)C(O)C1O)C2O (stereo unspecified) [16-Glucuronide-estriol]: 6.49
- CN1CC(=O)N2C(Cc3c([nH]c4ccccc34)C2c2ccc3c(c2)OCO3)C1=O (stereo unspecified): 1.19

Would you mind telling me what LC retention time value was observed for O=CCC(O)C(O)CO (stereo unspecified) ? 1.42

Would you mind telling me what LC retention time value was observed for CC(=O)C1CCC2C3CCC4=CC(=O)CCC4(C)C3CCC12C (stereo unspecified) ? 0.97

Would you mind telling me what LC retention time value was observed for O=Cc1cccc(O)c1 [3-Hydroxybenzaldehyde] ? 1.18

Would you mind telling me what LC retention time value was observed for COC1C(CO)OC(n2ccc(=O)[nH]c2=O)C1O (stereo unspecified) ? 2.42

Would you mind telling me what LC retention time value was observed for NCc1[nH]cc(CCC(=O)O)c1CC(=O)O ? 7.4

Would you mind telling me what LC retention time value was observed for COc1cc(C=CC=O)ccc1O ? 1.14

----------
// LC retention time lookup, one value per entry
- Protocol details: HILIC, Waters ACQUITY UPLC BEH Amide, 100 × 2.1 mm, 1.7 µm; A: water + 0.125% formic acid + 10 mM ammonium formate; B: 5% water + 95% acetonitrile + 0.125% formic acid + 10 mM ammonium formate; gradient (min/%B) 0/100 2/100 7.7/70 9.5/40 10.25/30 12.75/100 17/100
- Condition: stereoisomer not certain
Hey, just the number and the unit after it is fine.

Solved cases (2 shown):
• CCOC(=O)C1=C(COCCN)NC(C)=C(C(=O)OC)C1c1ccccc1Cl (centres undefined) = 4.24 min
• COc1cc(C=O)ccc1O = 1.15 min

Would you mind telling me what LC retention time value was observed for CN(CCCN1c2ccccc2CCc2ccccc21)CC(=O)c1ccc(Cl)cc1 ? 1.91 min

Would you mind telling me what LC retention time value was observed for CCC1(CC)C(=O)NCC(C)C1=O (centres undefined) ? 1.18 min

----------
- Protocol details: HILIC, Waters ACQUITY UPLC BEH Amide, 100 × 2.1 mm, 1.7 µm; A: water + 0.125% formic acid + 10 mM ammonium formate; B: 5% water + 95% acetonitrile + 0.125% formic acid + 10 mM ammonium formate; gradient (min/%B) 0/100 2/100 7.7/70 9.5/40 10.25/30 12.75/100 17/100
- Condition: stereoisomer not certain
// LC retention time lookup, one value per entry
Hey, just the number and the unit after it is fine.

Would you mind telling me what LC retention time value was observed for COC(=O)c1ccccc1C(=O)OC [Dimethyl phthalate] ? 1.04 min

Would you mind telling me what LC retention time value was observed for O=C1OC(CO)C(O)C(O)C1O (stereo not drawn) ? 8.15 min

Would you mind telling me what LC retention time value was observed for CC(C)C(=O)C(=O)O ? 2.84 min

Would you mind telling me what LC retention time value was observed for CCN(CC)CCN1C(=O)CN=C(c2ccccc2F)c2cc(Cl)ccc21 ? 2.41 min

Would you mind telling me what LC retention time value was observed for CC(O)C(NC(=O)C(N)CCC(=O)O)C(=O)O (stereo not drawn) ? 9.44 min

Would you mind telling me what LC retention time value was observed for CCCCCN=C(N)NN=Cc1c[nH]c2ccc(OC)cc12 ? 2.84 min

Would you mind telling me what LC retention time value was observed for CCCCCCCCCCCCCCCCCC(=O)OCC(O)CO (stereo not drawn) ? 0.99 min

Would you mind telling me what LC retention time value was observed for CNC(CC(=O)O)C(=O)O (stereo not drawn) ? 2.53 min

Would you mind telling me what LC retention time value was observed for Cc1ncsc1CCO ? 1.21 min

Would you mind telling me what LC retention time value was observed for Nc1c2c(nc3c1CCC3)CCCC2 ? 3.33 min

Would you mind telling me what LC retention time value was observed for NC(COP(=O)(O)O)C(=O)O (stereo not drawn) ? 9.85 min

Would you mind telling me what LC retention time value was observed for c1ccc2c(-c3nccs3)c[nH]c2c1 ? 1.05 min

Would you mind telling me what LC retention time value was observed for Cn1c(NCCN(CCO)CCCc2ccc([N+](=O)[O-])cc2)cc(=O)n(C)c1=O ? 3.21 min

Would you mind telling me what LC retention time value was observed for CCC(O)CC(=O)O (stereo not drawn) [3-Hydroxyvaleric acid] ? 1.29 min

----------
- Protocol details: HILIC, Waters ACQUITY UPLC BEH Amide, 100 × 2.1 mm, 1.7 µm; A: water + 0.125% formic acid + 10 mM ammonium formate; B: 5% water + 95% acetonitrile + 0.125% formic acid + 10 mM ammonium formate; gradient (min/%B) 0/100 2/100 7.7/70 9.5/40 10.25/30 12.75/100 17/100
- Condition: stereoisomer not certain
Measured attribute: LC retention time (min)
Form entry: value (min) — number only.

* O=C(O)c1cc(N=Nc2ccc(S(=O)(=O)Nc3ccccn3)cc2)ccc1O | 2.01
* CC(=O)NC(CCCN=C(N)N)C(=O)O (configuration not stated) | 8.16
* CCC(=O)Nc1ccc(Cl)c(Cl)c1 | 1.08

Would you mind telling me what LC retention time value was observed for NCCCCC(NC(=O)C(N)CCC(=O)O)C(=O)O (configuration not stated) ? 9.9

Would you mind telling me what LC retention time value was observed for O=C(O)C(O)c1ccc(O)c(O)c1 (configuration not stated) [3,4-Dihydroxymandelic acid] ? 2.3

Would you mind telling me what LC retention time value was observed for COCCCCC(=NOCCN)c1ccc(C(F)(F)F)cc1 ? 2.93

Would you mind telling me what LC retention time value was observed for NC(CS)C(=O)O (configuration not stated) ? 5.31

Would you mind telling me what LC retention time value was observed for COCCCOc1ccnc(CS(=O)c2nc3ccccc3[nH]2)c1C (configuration not stated) ? 2.44

Would you mind telling me what LC retention time value was observed for COc1ccc(CN2CCN(C(c3ccc(F)cc3)c3ccc(F)cc3)CC2)c(OC)c1OC ? 1.7

Would you mind telling me what LC retention time value was observed for CCCC(=O)O ? 10.2

Would you mind telling me what LC retention time value was observed for Nc1nc2c(ncn2CCC(CO)CO)c(=O)[nH]1 ? 6.71

Would you mind telling me what LC retention time value was observed for Cc1cccc(C)c1NC(=O)C(C)N (configuration not stated) [Tocainide] ? 4.97
